Can you tell me protein stability index for the items I'm about to list?
B1: KRT33B (parent)
chain: PAVDLNQVLNETRNQYEALVETNR

# Variants of: B1
# EXPERIMENT NOTES: protein stability index of a GFP-peptide fusion (GPS, HEK-293T) (PSI 1-6); higher = more stable;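 also: lentivirally expressed fusions sorted by FACS into six bins by GFP to DsRed ratio, PSI derived from sequencing read proportions per bin multiplied by bin number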
# TEST CONTEXT: c terminus: a fixed tail appended
Give a plain numeric answer without units written out.

Input line: protein stability index lookup needed for V20C , thanks.
Output line: 4.06

Input line: Follow-up entry: E17W
Output line: 3.54

Input line: Follow-up entry: Y16H
Output line: 5.02

Input line: Follow-up entry: N23V
Output line: 3.27

Input line: Follow-up entry: N14H
Output line: 3.53

Input line: Follow-up entry: Q7S
Output line: 4.01

Input line: Follow-up entry: N6K
Output line: 3.27

Input line: Follow-up entry: V8M
Output line: 2.66

Input line: Follow-up entry: R13S
Output line: 4.8

Input line: Follow-up entry: Q15H
Output line: 3.95

Input line: Follow-up entry: Y16W
Output line: 3.89

Input line: Follow-up entry: E11K
Output line: 3.85

Input line: Follow-up entry: P1C
Output line: 2.89

Input line: Follow-up entry: T22H
Output line: 3.98

Input line: Follow-up entry: V20N
Output line: 4.45

Input line: Follow-up entry: R13T
Output line: 4.59

Input line: Follow-up entry: E21Y
Output line: 3.23

Input line: Follow-up entry: L9W
Output line: 4.32

Input line: Follow-up entry: A2K
Output line: 3.87

Input line: Follow-up entry: N10D
Output line: 3.3

Input line: Follow-up entry: R24L
Output line: 2.54

Input line: Follow-up entry: E11Q
Output line: 4.29
